# System: H9c2 cardiomyocytes, 2-deoxyglucose stress, ATP luminescence, 2 h
# assay.remarks: H9c2 cell survival under 2-deoxyglucose stress – uHTS hits, dose response (AID 588780)
Activity calls are given as the source filed them.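 How the source made its calls: active means compounds whose fitted half-maximal concentration in the cell-protection dose series is at or below a set limit; inactive means the rest.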
Give your call using only these classes: active, inactive

Could you check what this test reported for CC1Nc2ncnc(N3CCN(c4ccccc4)CC3)c2N(Cc2ccc(Cl)cc2)C1=O (stereo not drawn) ?
active

What outcome does the record of this test show for `O=C(N/N=C/c1ccccn1)c1cccs1` ?
inactive

Record lookup: outcome of this test for `CCN(CC)c1ccc(C(=O)NNC(=O)CCc2nc3ccccc3c(=O)[nH]2)cc1` ?
inactive

---

# System: H9c2 cardiomyocytes, 2-deoxyglucose stress, ATP luminescence, 2 h
# assay.remarks: H9c2 cell survival under 2-deoxyglucose stress – uHTS hits, dose response (AID 588780)
The source made the active and inactive calls.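 How the source made its calls: active means compounds whose fitted half-maximal concentration in the cell-protection dose series is at or below a set limit; inactive means the rest.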
Assign a class; possible classes are active, inactive

Per the records of this test, what outcome belongs to `Cn1c(-n2c(CCCN3C(=O)c4ccccc4C3=O)nc3ccccc3c2=O)nc2ccccc21` ?
active

# outcome recorded in this test, key = `CCCN(CC(=O)Nc1ccc(F)c(F)c1F)C(=O)CCc1nc2ccccc2c(=O)[nH]1`
inactive

How did this test come out for `CCN(c1ccc(NC(=O)COC(=O)c2ccc([N+](=O)[O-])o2)cc1)C(C)C` ?
inactive

Please indicate how the test categorized `CCN(C[C@H]1N[C@@](CC)(C(=O)OC)[C@H]2C(=O)N(Cc3ccccc3)C(=O)[C@@H]12)S(=O)(=O)c1ccc(F)cc1` .
inactive

Dear colleague, could you share the recorded outcome for `CCOC(=O)c1cccc(C2=C(CNC(=O)c3cccnc3)[C@H]3CC[C@@H](C2)N3Cc2ccccc2)c1` when you have a moment?
inactive

Assay outcome for `NC(=O)c1ccsc1NC(=O)COC(=O)Cc1n[nH]c(=O)c2ccccc12` : what was it?
inactive

What outcome does the record of this test show for `CC(C)(C)C(=O)Nc1cccc(-c2nnc(-c3cccc(NC(=O)C(C)(C)C)c3)o2)c1` ?
inactive

What classification did `CCOC(=O)COc1cc(OCC(=O)OCC)c2c3c(c(=O)oc2c1)CCCC3` end up with in this test?
active

Outcome? `COc1cc2c(cc1OC)CN(CC(=O)Nc1ccccc1C#N)CC2`
inactive

// return assay outcome for `COc1ccc(-c2csc(NC(=O)CCn3cnc4ccccc4c3=O)n2)cc1OC`
inactive

Please state the recorded outcome for this compound: `Clc1nc2sccn2c1/C=N/n1cnc2ccccc21`
inactive

For this compound, state the assay outcome: COc1cccc(N2CC(C(=O)NCc3n[nH]c(=O)c4ccccc34)CC2=O)c1 (stereo unspecified)
inactive

Give the logged outcome of this assay for the following compound: `Oc1c(Cl)cc(Cl)cc1C=Nc1ccc(N2CCOCC2)cc1`
inactive

// param item: `C/C(=N\Nc1nnc2c3ccccc3n(C)c2n1)c1ccc(C)o1` ; yields the recorded call
inactive

# fetch the recorded call for `CC(C)(C)OC(=O)C[C@@H]1C/C=C\C[C@@H](CC(=O)N[C@@H](CO)Cc2ccccc2)C(=O)NC[C@@H](c2ccccc2)OC1=O` here
active

In this assay, the call recorded for `COc1cccc(-c2nnc(NC(=O)c3ccc(Cl)s3)o2)c1` was what?
inactive

Data origin, for the record: PubChem BioAssay AID588780
